# Test system: HCC-2998 colon
# Experiment Summary: NCI-60 one-dose screen, 48 h
# Experimental Conditions: 10 µM unless noted
This is part of a sample that, as a whole, favours compounds with a hit. Of some 83,000 tested, about 20% had one in any assay. Active and inactive are the calls of the source. The calls were made as follows: active = growth percent below 10; inactive = the rest.
Just give me one of these, please: T = active, F = inactive

These solved cases illustrate the format of a correct answer.
[[record]]
molecule = "CC12CCC3C(CCC4CC(O)CCC43C)C1CCC2=O (configuration not stated)"
answer_label = "F"

[[record]]
molecule = "CC[C@@H](C)C(=O)O[C@H]1[C@H](O)[C@H]2[C@@H](CN3C[C@@H](C)CC[C@H]3[C@@]2(C)O)[C@@H]2C[C@]34O[C@]5(O)[C@@H](OC(=O)[C@@](C)(O)CC)CC[C@@]3(C)[C@@H]5[C@@H](OC(C)=O)[C@@H](OC(C)=O)[C@H]4[C@@]21O"
answer_label = "F"

[[record]]
molecule = "CC[C@H](C)[C@H](NC(=O)[C@H]1CCCCN1C)C(=O)N(C)[C@H](CCc1nc(C(=O)N[C@@H](Cc2ccccc2)C[C@H](C)C(=O)O)cs1)C(C)C"
answer_label = "F"


Please indicate how the test categorized C[C@]12CCC3[C@@H](C[C@@H]4SC(Nc5ccccc5)=N[C@@]45CC(=O)CC[C@]35C)[C@@H]1CCC2=O (some centres not stated) .
T

Please indicate how the test categorized "Cc1cc[c-]cc1.Fc1c[c-]c(-c2ccccn2)c(F)c1.[Pt+2].c1ccc([PH+](c2ccccc2)c2ccccn2)cc1" .
F

Please indicate how the test categorized "CC1=CC(=Nc2ccc(N(CCCl)CCCl)cc2)C=C(C)C1=O" .
F

Please indicate how the test categorized "O=C1CN2CCC1CC2" .
F

Please indicate how the test categorized "CC1=C(C)C(=O)O[C@@H]([C@](C)(O)[C@]2(O)CC[C@@]3(O)[C@@H]4C[C@H]5O[C@]56CC=CC(=O)[C@]6(C)[C@H]4CC[C@]23C)C1" .
T

###

# Tested on: SN12C renal
# Experiment Summary: NCI-60 one-dose screen, 48 h
# Experimental Conditions: 10 µM unless noted
This is part of a sample that, as a whole, favours compounds with a hit. Of some 83,000 tested, about 20% had one in any assay. Calls of active or inactive are those of the source. How the source made its calls: active means growth percent below 10; inactive means the rest.
Just give me one of these, please: TRUE for active, FALSE for inactive

These solved cases illustrate the format of a correct answer.
[[record]]
molecule = "O=c1[nH]c(=O)[nH]c(=O)[nH]1"
answer_label = "FALSE"

[[record]]
molecule = "CO[C@@H]([CH2][Hg][O]C(=O)c1ccccc1)[C@@H]([CH2][Hg][O]C(=O)c1ccccc1)OC"
answer_label = "FALSE"

[[record]]
molecule = "OCCNC1CCCCC1"
answer_label = "FALSE"


Please indicate how the test categorized COC(=O)C12C3C4C1C1C2C3C41NC(=O)c1csc([C@@H](C[C@H](C(C)C)N(C)C(=O)[C@@H](NC(=O)[C@H]2CCCCN2C)C2CC2)OC(C)=O)n1 (some centres undefined) .
FALSE

Please indicate how the test categorized "Nc1c(Cl)c(Cl)nc(C(=O)O)c1Cl" .
FALSE

###

# Tested on: SNB-75 CNS
# Experiment Summary: NCI-60 one-dose screen, 48 h
# Experimental Conditions: 10 µM unless noted
This is part of a sample that, as a whole, favours compounds with a hit. Of some 83,000 tested, about 20% had one in any assay. The source made the active and inactive calls. Rule for the calls: active = growth percent below 10; inactive = the rest.
Just give me one of these, please: Yes for active, No for inactive

[[record]]
compound = "N#CC(N)c1ccccc1 (centres undefined)"
answer_label = "No"

[[record]]
compound = "CC[CH2][Sn]([Cl])([Cl])[CH2]CC.Oc1ccccc1C=NCCN=Cc1ccccc1O"
answer_label = "No"

[[record]]
compound = "O=C(NC(Cl)=C(Cl)Cl)P(=O)(c1ccccc1)c1ccccc1"
answer_label = "No"

[[record]]
compound = "CCCCn1c(=O)c(C(=O)NCc2ccccc2Cl)c(O)c2ccccc21"
answer_label = "No"

[[record]]
compound = "COC12CC3(C)C(C4=CC(=O)OC4)CCC3(O)C3CCC4=CC(=O)CCC4(CO1)C32 (centres undefined)"
answer_label = "No"

[[record]]
compound = "C[N+]1(CC#CC[N+]2(C)CCCC2)CCCC1"
answer_label = "No"


Kindly review the next compound as well.
Please indicate how the test categorized CCN1C(=O)NC(=O)C(C)(N2C(=O)c3c(F)c(F)c(F)c(F)c3C2=O)C1=O (centres undefined) .
No

###

Entries annotated with measured growth
# Tested on: HT29 colon
# Experiment Summary: NCI-60 one-dose screen, 48 h (100 = growth as untreated, 0 = no growth, -100 = all killed)
# Experimental Conditions: 10 µM unless noted
About 83,000 compounds went through this panel and 20% of them were active in at least one assay; those are over-represented in the sample as a whole.
Reply numerically in %, unit not repeated.

Some solved cases for reference:
[[record]]
molecule = "CC1=C(C)C(=O)O[C@@H]([C@](C)(O)[C@]2(O)CC[C@@]3(O)[C@@H]4C[C@H]5O[C@]56CC=CC(=O)[C@]6(C)[C@H]4CC[C@]23C)C1"
unit_name = "%"
measured_value = 1.74

[[record]]
molecule = "Cc1ccccc1-n1c(/C=C\\c2ccccn2)nc2ccccc2c1=O"
unit_name = "%"
measured_value = 79.7

[[record]]
molecule = "CC1(C)C=Cc2c(ccc3c2[N+]([O-])=C2C3=C[C@@]34NC(=O)[C@]5(CCCN5C3=O)C[C@@H]4C2(C)C)O1"
unit_name = "%"
measured_value = 24.6

[[record]]
molecule = "CC[C@@H](C)C(=O)O[C@H]1[C@H](O)[C@H]2[C@@H](CN3C[C@@H](C)CC[C@H]3[C@@]2(C)O)[C@@H]2C[C@]34O[C@]5(O)[C@@H](OC(=O)[C@@](C)(O)CC)CC[C@@]3(C)[C@@H]5[C@@H](OC(C)=O)[C@@H](OC(C)=O)[C@H]4[C@@]21O"
unit_name = "%"
measured_value = 112

[[record]]
molecule = "CC1=CC(=Nc2ccc(N(CCCl)CCCl)cc2)C=C(C)C1=O"
unit_name = "%"
measured_value = 11.1


For this molecule ( "CCN1C(=O)CC(=O)N(CC)C1=S" ), measured growth is 92.1

For this molecule ( "COc1ccc(N)cc1OC" ), measured growth is 105

For this molecule ( CCCCCCCCCCCCCCCCCC1OCC(COC(=O)O[C@@H](C(=O)O[C@H]2C[C@@]3(O)[C@@H](OC(=O)c4ccccc4)[C@@H]4[C@]5(OC(C)=O)CO[C@@H]5C[C@H](O)[C@@]4(C)C(=O)[C@H](OC(C)=O)C(=C2C)C3(C)C)[C@@H](NC(=O)c2ccccc2)c2ccccc2)O1 (some centres undefined) ), measured growth is 5.3

For this molecule ( O=P1(N(CCCl)CCCl)NCCCO1 (centres undefined) ), measured growth is 102

###

Entries annotated with measured growth
# System: OVCAR-5 ovarian
# Experiment Summary: NCI-60 one-dose screen, 48 h (100 = growth as untreated, 0 = no growth, -100 = all killed)
# Experimental Conditions: 10 µM unless noted
About 83,000 compounds went through this panel and 20% of them were active in at least one assay; those are over-represented in the sample as a whole.
Reply numerically in %, unit not repeated.

Some solved cases for reference:
[[record]]
molecule = "COc1ccc2c(c1)C1(C)CCN(C)CC(C1)C2O (stereo unspecified)"
measured_value = 99.3

[[record]]
molecule = "C[C@]12CCc3sc(Nc4ccc(F)cc4)nc3C1=CC[C@@H]1[C@@H]2CC[C@]2(C)C(=O)CC[C@@H]12"
measured_value = 100

[[record]]
molecule = "O=C(Cc1ccccc1)c1ccccc1"
measured_value = 108


For this molecule ( C=CC1CN2CCC1CC2C(O)c1ccnc2ccccc12 (stereo unspecified) ), measured growth is 116

For this molecule ( "c1ccc2c(c1)sc1ccccc12" ), measured growth is 95.7

For this molecule ( "O=[P+](O)c1cccnc1" ), measured growth is 107

###

# System: HL-60(TB) leukemia
# Experiment Summary: NCI-60 one-dose screen, 48 h
# Experimental Conditions: 10 µM unless noted
Compounds without any hit were thinned out: in the full panel of roughly 83,000, 20% have a hit. Active and inactive are the calls of the source. How the source made its calls: active means growth percent below 10; inactive means the rest.
Just give me one of these, please: 1 (active), -1 (inactive)

Please indicate how the test categorized "CNC(=O)CCl" .
-1

Please indicate how the test categorized COc1ccc(C(C#N)C(C)=O)cc1 (stereo not given) .
-1

Please indicate how the test categorized "CCCC[C@H]1C(=O)O[C@H](C)[C@H](NC(=O)c2cccc(NC=O)c2O)C(=O)O[C@@H](C)[C@@H]1OC(=O)CC(C)C" .
-1

Please indicate how the test categorized "N#CC(NC(=O)CCl)=C(Cl)Cl" .
1

Please indicate how the test categorized "C/C(=C\c1ccn(-c2ccc(N)c(C(F)(F)F)c2)n1)[C@@H]1C[C@@H]2O[C@]2(C)CCC[C@H](C)[C@H](O)[C@@H](C)C(=O)C(C)(C)[C@@H](O)CC(=O)O1" .
1
